Values were extracted from ChEMBL document CHEMBL1130713.

Assay: Half-life was evaluated in plasma of rat
Type: ADME, organism-based
EXPERIMENTAL_ENDPOINT: half-life (h)
Please reply with the bare figure in h and do not write the unit itself.

Use these answered entries as a reference point.
> print(dat)
                            smiles.notation  measurement
1  O=C(O)c1cccc(C[C@@H]2COc3ccc(OCc4nc5cc(F)ccc5s4)cc3[C@@H]2O)c1          1.3
2  COc1ccc(NS(=O)(=O)C(F)(F)F)cc1C[C@H]1[C@@H](O)c2cc(OCc3nc4cc(F)c(F)cc4s3)ccc2OC1(C)C          3.9

Here is the next item to consider.
Endpoint output: half-life of "COc1ccc(NS(=O)(=O)C(F)(F)F)cc1C[C@H]1[C@@H](O)c2cc(OCc3ccc4ccc(Cl)cc4n3)ccc2OC1(C)C" . Value?
3.6
